// reported AC50 per item
biological target: 5-hydroxytryptamine receptor 2B (Homo sapiens); assay type: functional, cell-based; also: assay procedure not described here
Sequence (P41595 whole entry): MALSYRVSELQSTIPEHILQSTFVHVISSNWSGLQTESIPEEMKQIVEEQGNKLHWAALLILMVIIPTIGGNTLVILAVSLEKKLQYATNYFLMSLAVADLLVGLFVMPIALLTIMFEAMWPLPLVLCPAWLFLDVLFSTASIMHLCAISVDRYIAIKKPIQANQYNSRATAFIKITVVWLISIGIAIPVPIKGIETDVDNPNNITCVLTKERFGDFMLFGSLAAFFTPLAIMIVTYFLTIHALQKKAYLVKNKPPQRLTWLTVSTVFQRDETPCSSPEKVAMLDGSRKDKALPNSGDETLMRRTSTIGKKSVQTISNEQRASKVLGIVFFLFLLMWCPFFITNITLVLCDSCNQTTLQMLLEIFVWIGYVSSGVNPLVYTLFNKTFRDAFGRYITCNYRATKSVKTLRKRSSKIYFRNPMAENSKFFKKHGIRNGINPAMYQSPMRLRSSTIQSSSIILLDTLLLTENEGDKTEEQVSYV
parameter.measured: AC50

compound="CN1CCN(c2c(F)cc3c(=O)c(C(=O)O)cn4c3c2SCC4)CC1 [RUFLOXACIN]" assay_system="5-hydroxytryptamine receptor 2B (Homo sapiens)" recorded_measurement="> 30 µM"
compound="C[C@@H]1C[C@H]2[C@@H]3C[C@H](F)C4=CC(=O)C=C[C@]4(C)[C@@]3(F)[C@@H](O)C[C@]2(C)[C@H]1C(=O)CO [DIFLUCORTOLONE]" assay_system="5-hydroxytryptamine receptor 2B (Homo sapiens)" recorded_measurement="> 30 µM"
compound="CC(=O)OCC(=O)[C@@]1(O)CC[C@H]2[C@@H]3CCC4=CC(=O)CC[C@]4(C)C3=CC[C@@]21C [ANECORTAVE ACETATE]" assay_system="5-hydroxytryptamine receptor 2B (Homo sapiens)" recorded_measurement="> 10 µM"
compound="CC(=O)OCC[N+](C)(C)C [ACETYLCHOLINE]" assay_system="5-hydroxytryptamine receptor 2B (Homo sapiens)" recorded_measurement="> 10 µM"

====

List of AC50 tested on Motilin receptor (Homo sapiens, UniProt O43193). Also: assay procedure not described here.
Sequence (O43193 whole entry): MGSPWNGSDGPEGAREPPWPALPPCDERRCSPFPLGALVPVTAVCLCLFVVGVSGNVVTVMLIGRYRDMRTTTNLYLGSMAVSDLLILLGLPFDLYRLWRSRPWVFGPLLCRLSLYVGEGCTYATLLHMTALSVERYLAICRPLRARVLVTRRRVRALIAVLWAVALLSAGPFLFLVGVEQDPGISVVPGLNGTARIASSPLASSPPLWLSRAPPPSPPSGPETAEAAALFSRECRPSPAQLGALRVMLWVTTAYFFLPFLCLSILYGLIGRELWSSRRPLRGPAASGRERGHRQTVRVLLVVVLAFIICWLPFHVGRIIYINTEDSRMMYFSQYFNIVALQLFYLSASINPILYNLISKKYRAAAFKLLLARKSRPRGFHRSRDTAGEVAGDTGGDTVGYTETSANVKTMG
parameter.measured: AC50

molecule="Nc1nc(F)nc2c1ncn2[C@@H]1O[C@H](COP(=O)(O)O)[C@@H](O)[C@@H]1O [FLUDARABINE PHOSPHATE]" parameter_measured=AC50 recorded_measurement="> 30 µM"
molecule="CNC(=O)Oc1ccc2c(c1)[C@]1(C)CCN(C)[C@@H]1N2C [PHYSOSTIGMINE]" parameter_measured=AC50 recorded_measurement="> 30 µM"
molecule="CN1C[C@H](C(=O)N[C@]2(C)O[C@@]3(O)[C@@H]4CCCN4C(=O)[C@H](Cc4ccccc4)N3C2=O)C[C@@H]2c3cccc4[nH]cc(c34)C[C@H]21 [DIHYDROERGOTAMINE]" parameter_measured=AC50 recorded_measurement="> 10 µM"
molecule="CCn1cc(C(=O)O)c(=O)c2cc(F)c(N3CCNCC3)nc21 [ENOXACIN]" parameter_measured=AC50 recorded_measurement="> 10 µM"
molecule="CCN(CC)CCOC(=O)c1ccc(N)cc1Cl [CHLOROPROCAINE]" parameter_measured=AC50 recorded_measurement="> 30 µM"
molecule="CO[C@@]1(NC(=O)Cc2cccs2)C(=O)N2C(C(=O)O)=C(COC(N)=O)CS[C@@H]21 [CEFOXITIN]" parameter_measured=AC50 recorded_measurement="> 30 µM"
molecule="CC1(C)C(C=C(Cl)Cl)C1C(=O)OCc1cccc(Oc2ccccc2)c1 (configuration not stated) [PERMETHRIN]" parameter_measured=AC50 recorded_measurement="> 10 µM"
molecule="O=C(Nc1nc(-c2cc(Cl)cs2)c(N2CCN(C3CCCCC3)CC2)s1)c1cnc(N2CCC(C(=O)O)CC2)c(Cl)c1 [AVATROMBOPAG]" parameter_measured=AC50 recorded_measurement="> 10 µM"
molecule="C#Cc1cccc(Nc2ncnc3cc(OCCOC)c(OCCOC)cc23)c1 [ERLOTINIB]" parameter_measured=AC50 recorded_measurement="> 30 µM"
molecule="CC1(C)O[C@@H]2[C@@H](CO[C@@]3(COS(N)(=O)=O)OC(C)(C)O[C@@H]23)O1 [TOPIRAMATE]" parameter_measured=AC50 recorded_measurement="> 10 µM"
molecule="CN(c1nccc(=O)[nH]1)C1CCN(c2nc3ccccc3n2Cc2ccc(F)cc2)CC1 [MIZOLASTINE]" parameter_measured=AC50 recorded_measurement="> 30 µM"
molecule="N=C(N)c1ccc2cc(OC(=O)c3ccc(N=C(N)N)cc3)ccc2c1 [NAFAMOSTAT]" parameter_measured=AC50 recorded_measurement="27 µM"
molecule="NS(=O)(=O)c1cc(C2(O)NC(=O)c3ccccc32)ccc1Cl (configuration not stated) [CHLORTHALIDONE]" parameter_measured=AC50 recorded_measurement="> 10 µM"
molecule="CC(=O)/N=c1/sc(S(N)(=O)=O)nn1C [METHAZOLAMIDE]" parameter_measured=AC50 recorded_measurement="> 10 µM"
molecule="COC(=O)[C@H](c1ccccc1Cl)N1CCc2sccc2C1 [CLOPIDOGREL]" parameter_measured=AC50 recorded_measurement="> 30 µM"
molecule="CCCNC(C)C(=O)Nc1ccccc1C (configuration not stated) [PRILOCAINE]" parameter_measured=AC50 recorded_measurement="> 30 µM"
molecule="COc1ccnc(C[S+]([O-])c2nc3ccc(OC(F)F)cc3[nH]2)c1OC (configuration not stated) [PANTOPRAZOLE]" parameter_measured=AC50 recorded_measurement="> 10 µM"

====

List of AC50 tested on Type-1 angiotensin II receptor (Homo sapiens, UniProt P30556). Also: assay procedure not described here.
Sequence (P30556 whole entry): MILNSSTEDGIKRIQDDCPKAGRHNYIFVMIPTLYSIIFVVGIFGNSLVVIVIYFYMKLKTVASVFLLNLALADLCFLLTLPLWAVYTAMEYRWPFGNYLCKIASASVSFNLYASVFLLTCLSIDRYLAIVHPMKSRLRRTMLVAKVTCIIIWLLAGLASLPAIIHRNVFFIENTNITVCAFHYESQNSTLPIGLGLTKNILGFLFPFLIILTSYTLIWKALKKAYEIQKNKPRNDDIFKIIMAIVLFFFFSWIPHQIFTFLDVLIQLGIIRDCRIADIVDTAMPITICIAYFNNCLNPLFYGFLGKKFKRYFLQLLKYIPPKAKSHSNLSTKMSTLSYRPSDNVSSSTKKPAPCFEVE
parameter.measured: AC50

compound=[H]/N=C(/N)N[C@H]1[C@H](O)[C@@H](O)[C@H](O[C@@H]2O[C@@H](C)[C@](O)(C=O)[C@H]2O[C@@H]2O[C@@H](CO)[C@H](O)[C@@H](O)[C@@H]2NC)[C@@H](N/C(N)=N\[H])[C@@H]1O parameter_measured=AC50 recorded_measurement="> 30 µM"
compound=CN1[C@@H]2CC[C@H]1C[C@@H](OC(=O)c1c[nH]c3ccccc13)C2 parameter_measured=AC50 recorded_measurement="> 30 µM"
compound="CC(=O)/N=c1/sc(S(N)(=O)=O)nn1C [METHAZOLAMIDE]" parameter_measured=AC50 recorded_measurement="> 10 µM"
compound="CC(CCc1ccccc1)NC(C)C(O)c1ccc(O)cc1 (centres undefined)" parameter_measured=AC50 recorded_measurement="> 30 µM"

====

target: Voltage-gated inwardly rectifying potassium channel KCNH2 (Homo sapiens); type: functional; conditions: read-out: AC50; also: assay procedure not described here
Sequence (Q12809 whole entry): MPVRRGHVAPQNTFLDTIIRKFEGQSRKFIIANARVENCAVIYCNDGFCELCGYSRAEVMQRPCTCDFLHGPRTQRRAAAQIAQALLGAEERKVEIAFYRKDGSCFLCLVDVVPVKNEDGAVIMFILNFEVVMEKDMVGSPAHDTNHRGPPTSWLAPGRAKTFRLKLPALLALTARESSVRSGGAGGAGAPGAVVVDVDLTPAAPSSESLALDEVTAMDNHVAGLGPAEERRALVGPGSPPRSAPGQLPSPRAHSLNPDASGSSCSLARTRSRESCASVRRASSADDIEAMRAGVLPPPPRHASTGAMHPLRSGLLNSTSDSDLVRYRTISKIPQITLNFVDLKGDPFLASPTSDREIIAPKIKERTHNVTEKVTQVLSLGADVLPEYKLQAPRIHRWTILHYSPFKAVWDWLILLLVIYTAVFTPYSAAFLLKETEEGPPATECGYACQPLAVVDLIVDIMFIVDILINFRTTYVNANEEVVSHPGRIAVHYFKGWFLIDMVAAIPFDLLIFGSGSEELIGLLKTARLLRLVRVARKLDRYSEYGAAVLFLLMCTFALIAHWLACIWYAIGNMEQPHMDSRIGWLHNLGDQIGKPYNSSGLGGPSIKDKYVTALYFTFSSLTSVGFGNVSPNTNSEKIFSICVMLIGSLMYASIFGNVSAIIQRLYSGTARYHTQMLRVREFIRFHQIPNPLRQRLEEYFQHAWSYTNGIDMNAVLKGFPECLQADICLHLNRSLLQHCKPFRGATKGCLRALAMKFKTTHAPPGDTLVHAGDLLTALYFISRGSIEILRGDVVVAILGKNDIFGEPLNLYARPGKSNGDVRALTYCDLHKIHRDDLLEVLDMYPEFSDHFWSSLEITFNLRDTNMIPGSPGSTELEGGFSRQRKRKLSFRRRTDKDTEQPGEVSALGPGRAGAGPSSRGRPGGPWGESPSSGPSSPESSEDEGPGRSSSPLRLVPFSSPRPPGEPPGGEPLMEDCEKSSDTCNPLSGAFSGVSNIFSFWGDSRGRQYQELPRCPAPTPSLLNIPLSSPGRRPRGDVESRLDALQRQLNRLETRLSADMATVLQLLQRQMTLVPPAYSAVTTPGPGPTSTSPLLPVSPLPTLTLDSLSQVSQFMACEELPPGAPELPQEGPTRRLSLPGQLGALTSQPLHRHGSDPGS
// reported AC50 per item
parameter.measured: AC50

molecule="CC(C)CC(N(C)C)C1(c2ccc(Cl)cc2)CCC1 (centres undefined) [SIBUTRAMINE]" recorded_measurement="8.34 µM"
molecule="C[C@H](N)C(=O)O [ALANINE]" recorded_measurement="> 30 µM"
molecule="C[C@@H](O)[C@H]1C(=O)N2C(C(=O)O)=C([C@H]3CCCO3)S[C@H]12 [FAROPENEM]" recorded_measurement="> 30 µM"
molecule="NS(=O)(=O)c1cc(C(=O)O)cc(N2CCCC2)c1Oc1ccccc1 [PIRETANIDE]" recorded_measurement="> 30 µM"
molecule="COC1=C(OC)C(=O)C(CCCCCCCCCCO)=C(C)C1=O [IDEBENONE]" recorded_measurement="> 30 µM"
molecule="CO[C@@]1(NC(=O)Cc2cccs2)C(=O)N2C(C(=O)O)=C(COC(N)=O)CS[C@@H]21 [CEFOXITIN]" recorded_measurement="> 30 µM"
molecule="NC(=O)NCCC[C@H](N)C(=O)O [L-CITRULLINE]" recorded_measurement="> 30 µM"
molecule="CC(C)N(CCCCOCC(=O)NS(C)(=O)=O)c1cnc(-c2ccccc2)c(-c2ccccc2)n1 [SELEXIPAG]" recorded_measurement="> 30 µM"
molecule="CC1(C)O[C@@H]2C[C@H]3[C@@H]4C[C@H](F)C5=CC(=O)C=C[C@]5(C)[C@H]4[C@@H](O)C[C@]3(C)[C@]2(C(=O)CO)O1 [FLUNISOLIDE]" recorded_measurement="> 30 µM"
molecule="O=C1CN2Cc3c(ccc(Cl)c3Cl)N=C2N1 [ANAGRELIDE]" recorded_measurement="> 30 µM"
molecule="CCCC(C)(COC(N)=O)COC(=O)NC(C)C (centres undefined) [CARISOPRODOL]" recorded_measurement="> 30 µM"
molecule=NC(=O)c1nc(F)c[nH]c1=O recorded_measurement="> 30 µM"
molecule="Nc1nc(N)nc(Nc2ccc([As]3SCC(CO)S3)cc2)n1 (centres undefined) [MELARSOPROL]" recorded_measurement="> 10 µM"
molecule="COCCCOc1ccnc(C[S+]([O-])c2nc3ccccc3[nH]2)c1C (centres undefined) [RABEPRAZOLE]" recorded_measurement="5.33 µM"
molecule="CNCCCC1c2ccccc2C=Cc2ccccc21 [PROTRIPTYLINE]" recorded_measurement="1 µM"
molecule="COC(=O)[C@H](c1ccccc1Cl)N1CCc2sccc2C1 [CLOPIDOGREL]" recorded_measurement="26.1 µM"
molecule="CCCCCCCCCCC[C@@H](C[C@@H]1OC(=O)[C@H]1CCCCCC)OC(=O)[C@H](CC(C)C)NC=O [ORLISTAT]" recorded_measurement="> 30 µM"
molecule="CCN(CC)CC(=O)Oc1ccc(NC(C)=O)cc1 [PROPACETAMOL]" recorded_measurement="> 30 µM"
molecule=C[C@]1(COc2ccc(N3CCC(Oc4ccc(OC(F)(F)F)cc4)CC3)cc2)Cn2cc([N+](=O)[O-])nc2O1 recorded_measurement="> 30 µM"

====

target: Gamma-aminobutyric acid receptor subunit alpha-1 (Rattus norvegicus, UniProt P62813); also: assay procedure not described here
Sequence (P62813 whole entry): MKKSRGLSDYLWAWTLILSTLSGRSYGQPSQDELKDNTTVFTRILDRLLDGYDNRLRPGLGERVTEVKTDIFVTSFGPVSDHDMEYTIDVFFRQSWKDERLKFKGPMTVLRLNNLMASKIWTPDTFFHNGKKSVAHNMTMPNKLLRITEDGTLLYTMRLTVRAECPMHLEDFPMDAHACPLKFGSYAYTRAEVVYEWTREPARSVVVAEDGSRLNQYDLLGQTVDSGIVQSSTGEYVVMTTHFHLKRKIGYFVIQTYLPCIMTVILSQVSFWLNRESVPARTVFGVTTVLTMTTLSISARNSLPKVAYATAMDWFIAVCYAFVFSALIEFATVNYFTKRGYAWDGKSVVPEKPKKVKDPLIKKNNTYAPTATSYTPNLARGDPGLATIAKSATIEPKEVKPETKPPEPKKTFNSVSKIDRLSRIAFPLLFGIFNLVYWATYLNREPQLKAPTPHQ
parameter.measured: AC50

molecule=O=C(O)c1ccccc1Nc1cccc(C(F)(F)F)c1 parameter_measured=AC50 recorded_measurement="> 10 µM"
molecule="CCN(CC)C(=O)C1(c2ccccc2)CC1CN (stereo not given)" parameter_measured=AC50 recorded_measurement="> 30 µM"
molecule=Cc1ccc(NC(=O)C2(c3ccc4c(c3)OC(F)(F)O4)CC2)nc1-c1cccc(C(=O)O)c1 parameter_measured=AC50 recorded_measurement="> 30 µM"
molecule=COc1ccc2c(c1)[C@]13CCCC[C@@H]1[C@H](C2)N(C)CC3 parameter_measured=AC50 recorded_measurement="> 10 µM"
molecule=CC(C)N(CCCCOCC(=O)NS(C)(=O)=O)c1cnc(-c2ccccc2)c(-c2ccccc2)n1 parameter_measured=AC50 recorded_measurement="> 30 µM"

Hello, the source for this data is ChEMBL document CHEMBL5291721, in case you need it.
